Hey, just so you know, these numbers are from PubChem BioAssay (NCATS).

- targetEntity: Parathyroid hormone/parathyroid hormone-related peptide receptor (Homo sapiens)
- test: qHTS for PTHR1 Agonists: Optimization Screen against the NCGC LOPAC library (AID 1347079);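 note: GloSensor cAMP luminescence in HEK-293 GP2 cells expressing human PTHR1 with IBMX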; for activation: 0% is about no effect
- measurementConditions: HEK293 GP2 PTHR1 GloSensor cAMP luminescence, 1 h; series mostly up to 57.1 µM
The source made the active and inactive calls. Calls come from the whole dose curve; as a rule, active = well fitted activation curve with a large enough effect; inconclusive = small, poorly fitted or top-dose-only effect; inactive = no such curve, though single readings can be large or run the other way.
One label from this list, please: true (1) = active, false (0) = inactive

What classification did CC(C)NCC(O)COc1ccc(CCOCC2CC2)cc1 (stereo not given) end up with in this test?
false (0)

***
What classification did CN(C)c1nc(N(C)C)nc(N(C)C)n1 end up with in this test?
false (0)

What classification did COc1ccc2c(c1)c(CC(=O)O)c(C)n2C(=O)c1ccc(Cl)cc1 end up with in this test?
false (0)

What classification did COc1cc2nc(N3CCN(C(=O)c4ccco4)CC3)nc(N)c2cc1OC end up with in this test?
false (0)

What classification did CC(C)NCC(O)c1ccc(O)c(O)c1 (stereo not given) end up with in this test?
true (1)

What classification did CC(C(=O)O)c1cccc(C(=O)c2ccccc2)c1 (stereo not given) end up with in this test?
false (0)

What classification did NCCS(=O)(=O)O end up with in this test?
false (0)

What classification did CC(COc1ccccc1)N(CCCl)Cc1ccccc1 (stereo not given) end up with in this test?
false (0)

What classification did CC(C)C(=O)Nc1ccc([N+](=O)[O-])c(C(F)(F)F)c1 end up with in this test?
false (0)

What classification did O=c1[nH]cc(F)c(=O)[nH]1 end up with in this test?
false (0)

What classification did CCCNCC(O)COc1ccccc1C(=O)CCc1ccccc1 (stereo not given) end up with in this test?
false (0)

----------
- test: Quantitative High-Throughput drug screen in 47 multiple myeloma cell lines against the NCATS MIPE library collection: Karpas620_DSMZ cell viability assay (AID 1918959); note: nearly all actives have a fitted effect of over 30% in size
- measurementConditions: Karpas620 myeloma viability, CellTiter-Glo ATP luminescence, 48 h; series mostly up to 45.8 µM
Inconclusive results are not listed. Activity calls are given as the source filed them. Calls follow the shape of the dose curve; as a rule, active = well fitted cell-killing curve with a large enough effect; inconclusive = small, poorly fitted or top-dose-only effect, or effect the other way; inactive = no such curve, though single readings can be large or run the other way.
One label from this list, please: YES (active), NO (inactive)

What classification did Cn1c(=O)c2c(ncn2C)n(C)c1=O end up with in this test?
NO

What classification did Cc1cnc(C(=O)NCCc2ccc(S(=O)(=O)NC(=O)NC3CCCCC3)cc2)cn1 end up with in this test?
NO

What classification did C[C@](N)(Cc1ccc(O)c(O)c1)C(=O)O end up with in this test?
NO

What classification did N[C@@H](Cc1c[nH]c2ccc(O)cc12)C(=O)O end up with in this test?
NO

What classification did CN(CCOc1ccc(NS(C)(=O)=O)cc1)CCc1ccc(NS(C)(=O)=O)cc1 end up with in this test?
NO

What classification did O=C(C1CCCCC1)N1CC(=O)N2CCc3ccccc3C2C1 (stereo unspecified) end up with in this test?
NO

***
What classification did COC(=O)Nc1nc2ccc(C(=O)c3cccs3)cc2[nH]1 end up with in this test?
YES

What classification did Clc1ccc2c(c1)C(N1CCNCC1)=Nc1ccccc1O2 end up with in this test?
NO

----------
- Tested on: NIH3T3
- test: Cytotoxic Profiling of Annotated Libraries Using Quantitative High-Throughput Screening (AID 1296008); note: nearly all actives have a fitted effect of over 60% in size
- measurementConditions: Five cell lines viability, CellTiter-Glo ATP luminescence, 48-72 h
Results filed as inconclusive are left out. The source made the active and inactive calls. The call rests on the fitted dose curve; in most records, active means well fitted inhibition curve with a large enough effect; inconclusive means small, poorly fitted or top-dose-only effect; inactive means flat fitted curve, though single readings scatter.
One label from this list, please: Y for active, N for inactive

What classification did COc1cc2nc(N(C)CCCNC(=O)C3CCCO3)nc(N)c2cc1OC (stereo not given) end up with in this test?
N

What classification did Cc1cc(C(C)(C)C)cc(C)c1CC1=NCCN1 end up with in this test?
N

What classification did CC[N+](CC)(CC)CCOc1cccc(OCC[N+](CC)(CC)CC)c1OCC[N+](CC)(CC)CC end up with in this test?
N

What classification did O=C1Cc2cc(CCN3CCN(c4nsc5ccccc45)CC3)c(Cl)cc2N1 end up with in this test?
N

What classification did CN1CCC(=C2c3ccccc3CC(=O)c3sccc32)CC1 end up with in this test?
N

What classification did NC12CC3CC(CC(C3)C1)C2 end up with in this test?
N

***
What classification did Cc1cc(C(C)(C)C)c(O)c(C)c1CC1=NCCN1 end up with in this test?
N

What classification did CCOC(=O)Nc1ccc(NCc2ccc(F)cc2)nc1N end up with in this test?
N

What classification did CC(=O)OCC(CCn1cnc2cnc(N)nc21)COC(C)=O end up with in this test?
N

What classification did CC1(C)O[C@H]2CC(=O)OC[C@]23[C@H]2CC[C@@]4(C)[C@H](c5ccoc5)OC(=O)[C@H]5O[C@]54[C@]2(C)C(=O)C[C@@H]13 end up with in this test?
N
